assay_remarks: Thermodynamic (Equilibrium) solubility in selected buffer
Type: physicochemical
test_context: phosphate buffer 50 mM, aqueous buffer, thermodynamic from solid; pH 7.4; Table 25; read-out: Solubility (μg/mL) pH 7.4
Experimental: Protocol—Thermodynamic (Equilibrium) Solubility in Selected Buffer Example compounds were tested in the Thermodynamic (Equilibrium) solubility in selected buffer assay. The test compound, in powder form, was weighted into a 4 mL glass vial and a calculated volume of selected medium was added to reach the target concentration of the solubility test (1 mg/mL). […] UV chromatograms were recorded at 220 nm, 254 nm and 290 nm using a photo diode array detector. […]
quantity_measured: solubility (µg/mL)

> print(dat)
                                   compound  quantity.measured  unit.info  reported
1  O=C(COc1ccc(Cl)c(F)c1)N[C@H]1CC[C@H](c2nnc(OCCOC(F)(F)F)o2)NC1         solubility      µg/mL        76
2  O=C(COc1ccc(Cl)c(Cl)c1)N[C@H]1CC[C@H](c2nnc(OCCOC(F)(F)F)o2)NC1         solubility      µg/mL         6
3  Cc1cc(OCC(=O)N[C@H]2CC[C@H](c3nnc(OCCOC(F)(F)F)o3)NC2)ccc1Cl         solubility      µg/mL       105

A = O=C(COc1ccc(Cl)c(F)c1)N[C@H]1CC[C@H](c2nnc(N3CC[C@H](OC(F)(F)F)C3)o2)NC1 (single isomer, unassigned)
B = O=C(COc1ccc(C(F)(F)F)cc1)N[C@H]1CC[C@H](c2nnc(OCCOC(F)(F)F)o2)NC1
C = O=C(COc1ccc(Cl)c(F)c1)N[C@H]1CC[C@H](c2nnc(OCCOC(F)F)o2)NC1
D = Cn1nc(-c2nnc([C@H]3CC[C@H](NC(=O)COc4ccc(Cl)c(F)c4)CN3)o2)cc1Cl
Enquiry: Put the items in sequence by solubility, from largest down. Provide the labels, sequenced as the question asks.
Return: A, B, C, D
(A: 132 µg/mL, B: 67 µg/mL, C: 22 µg/mL, D: 2 µg/mL)

====

assay_remarks: Log D 7.4 assay (1-octanol / phosphate buffer pH 7.4)
Format: physicochemical
quantity_measured: logD at 120 min

> print(dat)
                                   molecule  quantity.measured  reported
1  O=C(COc1ccc(Cl)c(F)c1)N[C@@H]1CC[C@@H](c2nnc(COC(F)(F)F)o2)OC1 [WO201904 6779 Ex 30, reference compound]    logD at 120 min       2.9
2  O=C(COc1ccc(Cl)c(F)c1)N[C@H]1CC[C@H](c2nnc(COC(F)(F)F)o2)NC1 [Example 61]    logD at 120 min       2.3
3  O=C(COc1ccc(Cl)c(F)c1)N[C@@H]1CC[C@@H](c2nnc([C@H]3C[C@@H](OC(F)(F)F)C3)o2)OC1 [WO201904 6779 Ex 1, reference compound]    logD at 120 min       3.6
4  O=C(COc1ccc(Cl)c(F)c1)N[C@H]1CC[C@H](c2nnc([C@H]3C[C@@H](OC(F)(F)F)C3)o2)NC1 [Example 50]    logD at 120 min       2.7

====

Listed here are compounds together with their documented IC50.
measured_on: human ERG potassium channel (hERG) (Homo sapiens, UniProt Q12809)
Construct: expressed in transfected cells; host or cells: HEK293, stably transfected, tetracycline-inducible promoter
Sequence (Q12809 whole entry): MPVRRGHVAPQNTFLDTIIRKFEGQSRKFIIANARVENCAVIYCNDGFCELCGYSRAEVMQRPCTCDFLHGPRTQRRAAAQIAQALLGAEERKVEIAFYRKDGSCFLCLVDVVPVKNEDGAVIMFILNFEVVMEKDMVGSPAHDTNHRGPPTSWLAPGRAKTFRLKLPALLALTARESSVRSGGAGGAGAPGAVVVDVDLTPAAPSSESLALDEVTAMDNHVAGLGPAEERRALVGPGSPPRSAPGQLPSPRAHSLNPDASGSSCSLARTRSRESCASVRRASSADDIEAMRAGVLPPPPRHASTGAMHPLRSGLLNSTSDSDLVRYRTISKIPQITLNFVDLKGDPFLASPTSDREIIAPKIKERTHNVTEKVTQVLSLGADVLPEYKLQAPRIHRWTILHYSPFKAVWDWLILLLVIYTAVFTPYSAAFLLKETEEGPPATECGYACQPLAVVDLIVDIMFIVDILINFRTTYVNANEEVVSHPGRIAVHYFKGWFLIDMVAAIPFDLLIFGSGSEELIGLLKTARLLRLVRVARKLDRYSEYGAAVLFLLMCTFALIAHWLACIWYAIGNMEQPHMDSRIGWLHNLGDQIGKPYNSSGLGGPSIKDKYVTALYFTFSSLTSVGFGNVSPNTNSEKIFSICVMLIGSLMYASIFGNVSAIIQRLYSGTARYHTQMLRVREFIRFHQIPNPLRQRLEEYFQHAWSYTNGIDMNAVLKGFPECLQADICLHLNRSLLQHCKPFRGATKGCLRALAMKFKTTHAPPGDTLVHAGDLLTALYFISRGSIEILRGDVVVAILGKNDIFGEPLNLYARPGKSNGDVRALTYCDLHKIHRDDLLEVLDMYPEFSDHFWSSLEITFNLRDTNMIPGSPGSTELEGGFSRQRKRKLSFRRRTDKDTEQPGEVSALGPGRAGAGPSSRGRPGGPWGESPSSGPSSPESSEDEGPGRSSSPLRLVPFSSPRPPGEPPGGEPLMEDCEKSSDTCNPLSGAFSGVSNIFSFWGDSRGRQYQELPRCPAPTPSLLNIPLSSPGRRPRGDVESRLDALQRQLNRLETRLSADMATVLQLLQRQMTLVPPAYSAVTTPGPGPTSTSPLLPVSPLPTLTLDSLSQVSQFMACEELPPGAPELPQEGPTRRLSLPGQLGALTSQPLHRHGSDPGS
assay_remarks: hERG channel tail current recording using in vitro Rapid ICE (automated patch-clamp, QPatch HTX)
Format: cell-based
test_context: Table 26
Experimental: Protocol—Measure of the Effect on hERG Channel by Tail Current Recording Using In Vitro Rapid ICE The potency of the example compounds in inhibiting human ERG potassium channel (hERG) tail current was assessed in a recombinant HEK293 cell line stably transfected with hERG cDNA under an inducible promoter, using Rapid ICE (rapid ion channel electrophysiology) assay. Rapid ICE is an automated patch-clamp assay utilizing the QPatch HTX system (Sophion Bioscience A/S). […]

> print(dat)
                                   compound   reported
1  O=C(COc1ccc(Cl)c(F)c1)N[C@H]1CC[C@H](c2nnc(N3CC(CC(F)(F)F)C3)o2)NC1  1 to 5 µM

Enquiry: Tell me measured IC50 for C[C@@H](Oc1ccc(Cl)cc1)C(=O)N[C@H]1CC[C@H](c2nnc(-c3ccc(C(F)(F)F)cc3)o2)NC1 (single isomer, unassigned) please.
Return: 1 to 5 µM

Enquiry: Return the recorded IC50 value; entry: O=C(COc1ccc(Cl)c(F)c1)N[C@H]1CC[C@H](c2nnc([C@H]3C[C@@H](OC4CC4)C3)o2)NC1 (single isomer, unassigned)
Return: > 5 µM

====

Test system: ATF4
assay_remarks: HEK-ATF4 High Content Imaging assay (prevention of Tunicamycin induced ISR; ATF4 signal ratio between nucleus and cytoplasm)
Assay type: cell-based
test_context: Table 24 category key; read-out: HEK-ATF4 Activity*
pIC50: −log10 of the molar value.
quantity_measured: pIC50

> print(dat)
                                   molecule  quantity.measured      reported
1  O=C(COc1ccc(Cl)c(F)c1)N[C@H]1CC[C@H](c2nnc(COC(F)(F)F)o2)NC1              pIC50  5.70 to 6.30
2  O=C(COc1ccc(Cl)c(F)c1)N[C@@H]1CC[C@@H](c2nnc(COC(F)(F)F)o2)OC1 [WO201904 6779 Ex 30, reference compound]              pIC50  5.70 to 6.30
3  O=C(COc1ccc(Cl)c(F)c1)N[C@H]1CC[C@H](c2nnc([C@H]3C[C@@H](OC(F)(F)F)C3)o2)NC1              pIC50  6.30 to 9.00

Enquiry: Tell me pIC50 of O=C(COc1ccc(Cl)c(F)c1)N[C@@H]1CC[C@@H](c2nnc([C@H]3C[C@@H](OC(F)(F)F)C3)o2)OC1 [WO201904 6779 Ex 1, reference compound] when tested on ATF4.
Return: 6.30 to 9.00

====

measured_on: human ERG potassium channel (hERG) (Homo sapiens)
Construct: expressed in transfected cells; host or cells: HEK293, stably transfected, tetracycline-inducible promoter
assay_remarks: hERG channel tail current recording using in vitro Rapid ICE (automated patch-clamp, QPatch HTX)
Assay type: cell-based
test_context: Table 26
quantity_measured: IC50

Below: 4 compounds and their reported IC50.
> print(dat)
                                   compound                               measured.on       reported
1  O=C(COc1ccc(Cl)c(F)c1)N[C@@H]1CC[C@@H](c2nnc(OCCC(F)(F)F)o2)NC1  human ERG potassium channel (hERG) (Homo sapiens)      1 to 5 µM
2  O=C(COc1ccc(Cl)c(F)c1)N[C@H]1CC[C@H](c2nnc([C@H]3C[C@@H](OC(F)(F)F)C3)o2)NC1  human ERG potassium channel (hERG) (Homo sapiens)         > 5 µM
3  O=C(COc1ccc(Cl)c(F)c1)N[C@@H]1CN[C@@H](c2nnc(-c3ccc(Cl)cc3)o2)C1  human ERG potassium channel (hERG) (Homo sapiens)  0.001 to 1 µM
4  O=C(COc1cnc(Cl)c(F)c1)N[C@H]1CC[C@H](c2nnc(-c3ccc(Cl)c(Cl)c3)o2)NC1  human ERG potassium channel (hERG) (Homo sapiens)      1 to 5 µM

Enquiry: State, for human ERG potassium channel (hERG) (Homo sapiens), measured IC50 of the compound listed here: COCCCOc1nnc([C@H]2CC[C@H](NC(=O)COc3ccc(Cl)c(F)c3)CN2)o1
Return: > 5 µM

Enquiry: Report IC50 from human ERG potassium channel (hERG) (Homo sapiens) testing of O=C(COc1ccc(Cl)c(Cl)c1)N[C@H]1CC[C@H](c2nnc([C@H]3C[C@@H](OC(F)F)C3)o2)NC1
Return: 0.001 to 1 µM

Enquiry: Give measured IC50 for Cc1cc(OCC(=O)N[C@H]2CC[C@H](c3nnc(OCCOC(F)(F)F)o3)NC2)ccc1Cl (human ERG potassium channel (hERG) (Homo sapiens)).
Return: > 5 µM

Enquiry: Look up human ERG potassium channel (hERG) (Homo sapiens) data: IC50 of O=C(COc1cnc(Cl)c(F)c1)N[C@H]1CC[C@H](c2nnc(-c3ccc(Cl)cc3)o2)NC1 , then report it.
Return: 0.001 to 1 µM

Enquiry: For human ERG potassium channel (hERG) (Homo sapiens), give the measured IC50 of the entry CN(CCOC(F)(F)F)c1nnc([C@H]2CC[C@H](NC(=O)COc3ccc(Cl)c(F)c3)CN2)o1
Return: > 5 µM

Enquiry: Provide measured IC50 on human ERG potassium channel (hERG) (Homo sapiens) for CN1C[C@@H](NC(=O)COc2ccc(Cl)c(F)c2)CC[C@@H]1c1nnc(-c2ccc(Cl)cc2)o1 please.
Return: 0.001 to 1 µM

Enquiry: With human ERG potassium channel (hERG) (Homo sapiens) as the test system, provide measured IC50 for this compound: O=C(COc1ccc(Cl)c(F)c1)N[C@H]1CC[C@H](c2nnc(OCCOC(F)(F)F)o2)NC1
Return: 1 to 5 µM
